Ref: PubChem BioAssay (NCI)

- Tested on: 786-0 renal
- Procedure Text: NCI-60 one-dose screen, 48 h (100 = growth as untreated, 0 = no growth, -100 = all killed)
- Study Conditions: 10 µM unless noted
This is part of a sample that, as a whole, favours compounds with a hit. Of some 83,000 tested, about 20% had one in any assay.
Parameter threshold = 60%. Response is criterion met when growth meets or exceeds it, else criterion not met.

| Compound | Assigned Category |
| --- | --- |
| Nc1c(C(=O)Nc2cccc3ncccc23)sc2nc3c(cc12)CN(Cc1ccccc1)CC3 | criterion met |
| C=C(C)[C@@H]1CC[C@]2(CO)CC[C@]3(C)[C@H](CC[C@@H]4[C@@](C)(CCCN)[C@H](C(=C)C)CC[C@]43C)[C@@H]12 | criterion not met |
| COc1ccc2cc(-c3nc4ccc(C)cn4c3NCc3ccco3)c(=O)[nH]c2c1 | criterion met |
| COc1ccc(C(=O)Nc2ncc(Cc3ccc(Cl)cc3)s2)cc1 | criterion not met |
| O=C(NNc1nc2cc(F)ccc2n2c(CN3CCOCC3)ccc12)c1ccccc1 | criterion not met |
| O=S(Nc1ccccc1)c1ccc(Cl)cc1 (stereo unspecified) | criterion met |
| COC(=O)c1c2c(c[n+]([O-])c1C)C(=O)C=C(NCc1ccccc1)C2=O | criterion not met |
| N#Cc1c(-c2ccccc2)nc2c(c(-c3ccc(Cl)cc3)nn2-c2ccccc2)c1-c1ccc([N+](=O)[O-])cc1 | criterion met |
| C[C@H](c1nc2ccc(C#N)cc2[nH]1)[C@H]1CC[C@H]2[C@@H]3CCC4=CC(=O)CC[C@]4(C)[C@H]3CC[C@]12C | criterion met |
| Cc1cc(C)c2c(c1)N(C)c1ncnc(-n3c(C)nc4cc(C)ccc43)c1CC2C (stereo unspecified) | criterion not met |
| N#Cc1c(-c2ccccc2)cc(-c2ccccc2)n(CCCCC(=O)NO)c1=O | criterion not met |
| O=C(/C=C/C12c3ccccc3C(c3ccccc31)C1C(=O)NC(=O)C12)c1ccco1 (stereo unspecified) | criterion not met |
| CC(=O)c1sc(-c2ccc(F)cc2)cc1O | criterion met |
| C#CCOc1cccc(Nc2ncnc3c2ncn3C2CCN(C(=O)CCl)C2)c1 (stereo unspecified) | criterion not met |
| O=C(NCCNC(c1ccccc1)C(NCCNC(=O)c1ccccc1)c1ccccc1)c1ccccc1 (stereo unspecified) | criterion met |
